Target: hAM1R (human, UniProt Q16602)
Assay: cell-based or functional assay
Numbered stars: 1 amine (or outer) side, 2 acyl side, 3 side chain; on linkers, the order of the positions; unused ones are H or OH. Bridge positions count the residues as written; N and C are the ends. Square brackets hold non-standard residues; d marks the D form. Ends that are not written are not given here. * marks the point of attachment. C20 diacid = O=C(O)CCCCCCCCCCCCCCCCCCC(=O)*; γGlu = O=C(O)[C@H](CCC(=O)[*:2])N[*:1]; Hyp = O=C(O)[C@@H]1C[C@@H](O)CN1; Cit = NC(=O)NCCC[C@H](N)C(=O)O
Assign hAM1R EC50 (cAMP) to each entry below.

Q: What hAM1R EC50 (cAMP) value was documented for this binder, {C20 diacid-γGlu}-KCNTATCTVQRLAEQIYQFTDKDKDNVAPPTAVGSNG[Hyp]-NH2 (disulfide 2-7 (inferred); not fully specified; ends not checked) [SEQ ID NO: 63] ?
Ans: > 5000 nM

Q: What hAM1R EC50 (cAMP) value was documented for this binder, GCRFGTCTVQRLAHFLYQFTDKDKDNVAPRTNVGPQGY [SEQ ID NO: 54] ?
Ans: 46.2 nM

Q: What hAM1R EC50 (cAMP) value was documented for this binder, KCQTATCTVQRLAEQIYQFTDKDKDNVAPPTNVGSNGX (not fully specified; C20DA-yGlu at N-terminal; Hyp at X38) [SEQ ID NO: 72] ?
Ans: > 5000 nM

Q: What hAM1R EC50 (cAMP) value was documented for this binder, KCNTATCTVQWLAHQIYQFTKDKDNVAPPTNVGSNG[Hyp]-NH2 (disulfide 2-7 (inferred); ends not checked) [SEQ ID NO: 317] ?
Ans: > 5000 nM

Q: What hAM1R EC50 (cAMP) value was documented for this binder, GCRFGTCTVQRLAHQIYQFTDKDKDNVAPRTKVSPNGY [SEQ ID NO: 385] ?
Ans: 7 nM

Q: What hAM1R EC50 (cAMP) value was documented for this binder, {C20 diacid-γGlu}-KCNTATCTVQRLAHQIVQFTDKDKDNVAPPTNVGSNG[Hyp]-NH2 (disulfide 2-7 (inferred); not fully specified; ends not checked) [SEQ ID NO: 85] ?
Ans: > 5000 nM

Q: What hAM1R EC50 (cAMP) value was documented for this binder, GCRTGTCTVQ[Cit]LAHQIYQFTDKDKDNVAPRTNVGPQG[Hyp]-NH2 (disulfide 2-7 (inferred); ends not checked) [SEQ ID NO: 261] ?
Ans: > 5000 nM

Q: What hAM1R EC50 (cAMP) value was documented for this binder, GCRTGTCTVQRLAHQIYQFTDKDKDNVAPRTKIGPNG[Hyp]-NH2 (disulfide 2-7 (inferred); ends not checked) [SEQ ID NO: 115] ?
Ans: 130 nM

Q: What hAM1R EC50 (cAMP) value was documented for this binder, GCRFGTCTVQRLAHQIYQFTDKDKDNVAPRTKISPQGY [SEQ ID NO: 164] ?
Ans: 106 nM

Q: What hAM1R EC50 (cAMP) value was documented for this binder, KCNTATCTVQWLAHQIYQFDKDKDNVAPPTNVGSNG[Hyp]-NH2 (disulfide 2-7 (inferred); ends not checked) [SEQ ID NO: 329] ?
Ans: > 5000 nM

Q: What hAM1R EC50 (cAMP) value was documented for this binder, {C20 diacid-γGlu}-KCNTATCTVDRLAHQIAQFTDKDKDNVAPPTNVGSNG[Hyp]-NH2 (disulfide 2-7 (inferred); ends not checked) [SEQ ID NO: 112] ?
Ans: > 5000 nM

Q: What hAM1R EC50 (cAMP) value was documented for this binder, GCRTGTCTVQRLAHQIYQFTDKDKDNVAPRSNVGPQG[Hyp]-NH2 (disulfide 2-7 (inferred); ends not checked) [SEQ ID NO: 121] ?
Ans: 2980 nM

Q: What hAM1R EC50 (cAMP) value was documented for this binder, RCNASTCTVNWLADQITQFSNKDKAQVSPPTEVGPNS[Hyp]-NH2 (disulfide 2-7 (inferred); ends not checked) [SEQ ID NO: 307] ?
Ans: > 5000 nM

Numbers sourced from patent US12139520B2.
